Method Summary: Octanol-water partition coefficients
Format: physicochemical
Study Conditions: errors show SEM; Gd in each layer by ICP-MS
Some molecules, each annotated with its measured Water-Octanol LogP.
Measurement Kind: Water-Octanol LogP

• NCCCN1CCN(CC(=O)[O-])CCN(CC(=O)[O-])CCN(CC(=O)[O-])CC1.[Gd+3] = −3.86
• NCCCCCCN1CCN(CC(=O)[O-])CCN(CC(=O)[O-])CCN(CC(=O)[O-])CC1.[Gd+3] = −3.98
• O=C([O-])CN1CCN(CC(=O)[O-])CCN(CC(O)Cn2cc(CCCc3ccccc3)nn2)CCN(CC(=O)[O-])CC1.[Gd+3] (stereo not drawn) = −1.26
• O=C([O-])CN1CCNCCN(CC(=O)[O-])CCN(CC(=O)[O-])CC1.[Gd+3] = −3.71
• O=C([O-])CN(CCN(CC(=O)[O-])CC(=O)[O-])CCN(CC(=O)[O-])CC(=O)[O-].[Gd+3] = −3.80
• O=C([O-])CN1CCN(CC(=O)[O-])CCN(CC(O)Cn2cc(CCCO)nn2)CCN(CC(=O)[O-])CC1.[Gd+3] (stereo not drawn) = −3.98
